# Procedure text: xn = mol fraction of the nth substance listed
# Condition label: 298.15 K; 101 kPa; x2 = 0.0009002; x1 = 1.63e-06
Measured metric: electrical conductivity (S/m)

                                   compound  result_value
0  CCCCCCCCCCCCCCCC[n+]1ccccc1.O=C([O-])c1ccccc1O + CC(C)C[C@H](N)C(=O)O + O       0.00166
1  CCCCCCCCCCCCCCCC[n+]1ccccc1.O=C([O-])c1ccccc1O + NCC(=O)NCC(=O)O + O       0.00253
2  CCCCCCCCCCCCCCCC[n+]1ccccc1.O=C([O-])c1ccccc1O + C[C@H](N)C(=O)O + O       0.00102
3  CCCCCCCCCCCCCCCC[n+]1ccccc1.O=C([O-])c1ccccc1O + CC(C)[C@H](N)C(=O)O + O       0.00138
4  CCCCCCCCCCCCCCCC[n+]1ccccc1.O=C([O-])c1ccccc1O + NCC(=O)O + O      0.000952

Provenance of the data: the CheMixHub ionic liquid set
